Origin of measurements: PubChem BioAssay (NCATS)

test: Quantitative highthroughput screen to assess conditional lethalithy of NOMO1 cells grown in RPMI1640 with untreated serum (RPMI+s) (AID 1963876); conditions: NOMO1 AML cells in RPMI+serum, CellTiter-Glo viability, 48 h; series mostly up to 45.8 µM; also: nearly all actives have a fitted effect of over 35% in size
Inconclusive results are not listed. Activity calls are given as the source filed them. Calls follow the shape of the dose curve; as a rule, active = well fitted cell-killing curve with a large enough effect; inconclusive = small, poorly fitted or top-dose-only effect; inactive = flat fitted curve, though single readings scatter.
Write down the outcome that applies. Available outcomes: active, inactive

# input Name the outcome recorded for `CC(C)(C)c1cc(C(C)(C)C)c(NC(=O)c2c[nH]c3ccccc3c2=O)cc1O` in the assay.
# output inactive

# input Name the outcome recorded for `O=C(Nc1cc2cc[nH]c2cn1)c1ccccc1` in the assay.
# output active

# input Name the outcome recorded for `C[C@@H]1CN(CC(=O)N2CC(C)(C)c3ncc(Cc4ccc(F)cc4)cc32)[C@@H](CN2CCOC[C@H]2C)CN1` in the assay.
# output inactive

# input Name the outcome recorded for `CN(C(=O)c1ccc(F)cc1C(F)(F)F)C1CCN(c2nnc(-c3ccnn3C)c3ccccc23)CC1` in the assay.
# output inactive

# input Name the outcome recorded for `COc1cc(N2CCN(C)CC2)ccc1Nc1nc(N)c(C(=O)c2c(Cl)cccc2Cl)s1` in the assay.
# output inactive

# input Name the outcome recorded for `Cc1cn[nH]c1` in the assay.
# output inactive

# input Name the outcome recorded for `C=CCNC1=C2C[C@@H](C)C[C@H](OC)[C@@H](O)[C@@H](C)C=C(C)[C@H](OC(N)=O)[C@@H](OC)C=CC=C(C)C(=O)NC(=CC1=O)C2=O` in the assay.
# output active

# input Name the outcome recorded for `C1Cc2[nH]nc(-c3nn[nH]n3)c2C1` in the assay.
# output inactive

# input Name the outcome recorded for C[C@]12CC[C@H](O)CC1=CCC1C2CC[C@]2(C)C(n3cnc4ccccc43)=CCC12 (some centres not stated) in the assay.
# output inactive

# input Name the outcome recorded for `c1cc(CN2CCCNCCNCCCNCC2)ccc1CN1CCCNCCNCCCNCC1` in the assay.
# output inactive

# input Name the outcome recorded for `Cc1cnc(Nc2ccc(CN3CCOCC3)cc2)nc1Nc1cccc(S(=O)(=O)NC(C)(C)C)c1` in the assay.
# output active

# input Name the outcome recorded for `Cc1cc(OCCCc2c(C(=O)O)n(Cc3cccnc3)c3c(-c4c(COc5ccc(N6CCN([S+](C)(=O)[O-])CC6)cc5)nn(C)c4C)cccc23)cc(C)c1Cl` in the assay.
# output inactive
